Measured values drawn from PubChem BioAssay AID1963967 for this set.

system: 855422-203-R-J1-PDC spheroids with HUVEC/MSC, viability; test: Anticancer human tumor 855422-203-R-J1-PDC patient-derived bladder carcinoma cell line growth inhibition [PI3K]; settings: second compound 0.316 µM; first compound 1 µM; active = viability on the fitted dose curve at most 10% of control; inactive = the rest
Labels: yes (1) = active, no (0) = inactive

| compound | qualitative-label |
| --- | --- |
| CC(Cn1ccc(-c2ccc(C#N)c(Cl)c2)n1)NC(=O)c1cc(C(C)O)[nH]n1 (stereo unspecified) + CC(Nc1ccc2c(c1)OCCn1cc(N3C(=O)OCC3C(F)F)nc1-2)C(N)=O | no (0) |
| CCCS(=O)(=O)Nc1ccc(F)c(C(=O)c2c[nH]c3ncc(-c4ccc(Cl)cc4)cc23)c1F + COc1c(OCCCN2CCOCC2)ccc2c3n(c(=NC(=O)c4cnc(N)nc4)nc12)CCN3 | yes (1) |
| C=CC(=O)N1CCN(c2nc(=O)n(-c3c(C)ccnc3C(C)C)c3nc(-c4c(O)cccc4F)c(F)cc23)C(C)C1 (stereo unspecified) + COc1c(OCCCN2CCOCC2)ccc2c3n(c(=NC(=O)c4cnc(N)nc4)nc12)CCN3 | yes (1) |
| CCN1CCN(Cc2ccc(Nc3ncc(F)c(-c4cc(F)c5nc(C)n(C(C)C)c5c4)n3)nc2)CC1 + CC(Nc1ccc2c(c1)OCCn1cc(N3C(=O)OCC3C(F)F)nc1-2)C(N)=O | no (0) |
| Cn1nccc1Nc1nccc(-c2ccn(C(CO)c3ccc(Cl)c(F)c3)c(=O)c2)n1 (stereo unspecified) + CC(Nc1ncnc2nc[nH]c12)c1cc2cccc(Cl)c2c(=O)n1-c1ccccc1 | no (0) |
| Cn1ncc(Cl)c1-c1cc(C(=O)NC(CN)Cc2cccc(F)c2)sc1Cl (stereo unspecified) + Cc1nc(NC(=O)N2CCCC2C(N)=O)sc1-c1ccnc(C(C)(C)C(F)(F)F)c1 | no (0) |

====

system: 855422-203-R-J1-PDC spheroids with HUVEC/MSC, viability; test: Anticancer human tumor 855422-203-R-J1-PDC cell line growth inhibition [PI3K]; details: second compound 3.16 µM; first compound 1 µM; stronger effect = lower value;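 note: agents incubated with spheroids for one week before read-out; 100% = DMSO vehicle-treated control wells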

| molecule | viability, T/C / % |
| --- | --- |
| CC1(C)CCC(CN2CCN(c3ccc(C(=O)NS(=O)(=O)c4ccc(NCC5CCOCC5)c([N+](=O)[O-])c4)c(Oc4cnc5[nH]ccc5c4)c3)CC2)=C(c2ccc(Cl)cc2)C1 + CC(Nc1ncnc2nc[nH]c12)c1cc2cccc(Cl)c2c(=O)n1-c1ccccc1 | 97.9 |
| CCN1CCN(Cc2ccc(Nc3ncc(F)c(-c4cc(F)c5nc(C)n(C(C)C)c5c4)n3)nc2)CC1 + Cc1nc(NC(=O)N2CCCC2C(N)=O)sc1-c1ccnc(C(C)(C)C(F)(F)F)c1 | 16.1 |
| Cn1nccc1Nc1nccc(-c2ccn(C(CO)c3ccc(Cl)c(F)c3)c(=O)c2)n1 (stereo not given) + CC(Nc1ncnc2nc[nH]c12)c1cc2cccc(Cl)c2c(=O)n1-c1ccccc1 | 103 |
| CC(C)NCC(C(=O)N1CCN(c2ncnc3c2C(C)CC3O)CC1)c1ccc(Cl)cc1 (stereo not given) + Cc1nc(NC(=O)N2CCCC2C(N)=O)sc1-c1ccnc(C(C)(C)C(F)(F)F)c1 | 30.2 |
| CC(Cn1ccc(-c2ccc(C#N)c(Cl)c2)n1)NC(=O)c1cc(C(C)O)[nH]n1 (stereo not given) + CC(Nc1ncnc2nc[nH]c12)c1cc2cccc(Cl)c2c(=O)n1-c1ccccc1 | 101 |
